ASSAY_SYSTEM: EML4-ALK (L1196M)-BaF3 (Homo sapiens, UniProt Q9UM73, L1196M)
Construct: expressed in transfected cells; host or cells: Ba/F3 cells; the other entry of the earlier key: EML4 (Q9HC35, Echinoderm microtubule-associated protein-like 4)
EXPERIMENT_DESCRIPTION: Growth inhibition of EML4-ALK (L1196M) transformed BaF3 cells (MTS)
Type: cell-based
EXPERIMENTAL_CONDITIONS: 48 hours, Table 12, read-out: L1196M (IC50 nM)
Description: If compounds can inhibit the activity of ALK kinase or the activity of ALK signaling pathway, they can inhibit the growth of ALK transformed Ba/F3 cells. […] The broad-spectrum toxicity of compounds can be evaluated by determining the effect of the compounds on the growth of wild type BaF3 cells. […] 4) Calculation of IC50 value: the semi inhibitory concentration of the compound acting on the cells was calculated using GradPad Prism 5 software according to the cell inhibitory rate measured.
Field: label. Allowed values: 1 (IC50 < 3000 nM) or -1 (IC50 >= 3000 nM).

Answered examples (3):
Quick check: does CSc1ccccc1CNc1nc(Nc2ccc(S(N)(=O)=O)cc2)nc2ccn(C)c12 have IC50 under 3000 nM?
-1

Quick check: does CSc1ccccc1Nc1nc(Nc2ccc(S(N)(=O)=O)cc2)nc2ccn(C)c12 have IC50 under 3000 nM?
1

Quick check: does CC(C)Sc1ccccc1CNc1nc(Nc2ccc(S(N)(=O)=O)cc2)nc2ccn(C)c12 have IC50 under 3000 nM?
-1

Further cases:
Quick check: does COc1cc(N2CCN(C)CC2)ccc1Nc1nc(NCc2ccccc2S(C)(=O)=O)c2c(ccn2C)n1 have IC50 under 3000 nM?
1

Quick check: does CC(C)S(=O)(=O)c1ccccc1CNc1nc(Nc2ccc(S(N)(=O)=O)cc2)nc2ccn(C)c12 have IC50 under 3000 nM?
-1

###

ASSAY_SYSTEM: NPM-ALK-BaF3 (Homo sapiens, UniProt Q9UM73)
Construct: expressed in transfected cells; host or cells: Ba/F3 cells; the other entry of the earlier key: NPM1 (P06748, Nucleophosmin)
EXPERIMENT_DESCRIPTION: Growth inhibition of NPM-ALK transformed BaF3 cells (MTS)
Format: cell-based
EXPERIMENTAL_CONDITIONS: 48 hours, Table 11
Field: label. Allowed values: Condition met (IC50 < 2000 nM) or Condition not met (IC50 >= 2000 nM).

Quick check: does COC(=O)c1ccccc1Nc1nc(Nc2ccc(N3CCN(C)CC3)cn2)nc2cc[nH]c12 have IC50 under 2000 nM?
Condition not met

Quick check: does CC(C)Sc1ccccc1CNc1nc(Nc2ccc(N3CCC(O)CC3)cc2)nc2cc[nH]c12 have IC50 under 2000 nM?
Condition met

Quick check: does CCC(C)OC(=O)c1ccccc1Nc1nc(Nc2ccc(N3CCC(O)CC3)cc2)nc2cc[nH]c12 (stereo not drawn) have IC50 under 2000 nM?
Condition not met

Quick check: does COc1cc(N2CCN(C)CC2)ccc1Nc1nc(Nc2ccccc2S(=O)(=O)C(C)C)c2[nH]ccc2n1 have IC50 under 2000 nM?
Condition met

Quick check: does COC(=O)c1ccccc1Nc1nc(Nc2ccc(OCc3ccccn3)cc2)nc2cc[nH]c12 have IC50 under 2000 nM?
Condition met

Quick check: does CC(C)S(=O)(=O)c1ccccc1CNc1nc(Nc2ccc(N3CCN(C)CC3)cc2)nc2cc[nH]c12 have IC50 under 2000 nM?
Condition not met

Quick check: does CNc1nc(Nc2ccc(S(N)(=O)=O)cc2)nc2cc[nH]c12 have IC50 under 2000 nM?
Condition not met

Quick check: does COC(=O)c1ccccc1Sc1nc(Nc2ccc(N3CCN(C)CC3)cc2OC)nc2cc[nH]c12 have IC50 under 2000 nM?
Condition not met

Quick check: does CNc1nc(Nc2ccc(N3CCC(O)CC3)cc2)nc2cc[nH]c12 have IC50 under 2000 nM?
Condition not met

Quick check: does COc1cc(N2CCC(N3CCN(C)CC3)CC2)ccc1Nc1nc(NCc2ccccc2S(C)(=O)=O)c2[nH]ccc2n1 have IC50 under 2000 nM?
Condition not met

Quick check: does COC(=O)c1ccccc1Sc1nc(Nc2ccc(N3CCC(O)CC3)cc2)nc2cc[nH]c12 have IC50 under 2000 nM?
Condition not met

Quick check: does OC1CCN(c2ccc(Nc3nc(NC4CC4)c4[nH]ccc4n3)cc2)CC1 have IC50 under 2000 nM?
Condition not met

Quick check: does CCNc1nc(Nc2ccc(N3CCC(O)CC3)cc2)nc2cc[nH]c12 have IC50 under 2000 nM?
Condition not met

Quick check: does COC(=O)c1ccccc1Nc1nc(Nc2ccc(N3CCC(O)CC3)cc2)nc2cc[nH]c12 have IC50 under 2000 nM?
Condition not met

Quick check: does COC(=O)c1ccccc1Nc1nc(Nc2ccc(C(=O)N3CCOCC3)cc2OC)nc2cc[nH]c12 have IC50 under 2000 nM?
Condition not met

Quick check: does COc1cc(N2CCN(C)CC2)ccc1Nc1nc(NC2CC2)c2[nH]ccc2n1 have IC50 under 2000 nM?
Condition met
